System: Cyperus iria
assayComment: Preemergence weed control under flooded paddy conditions, CYPIR (Rice Flatsedge)
Format: in vivo
reportedConditions: 0.0620 kg/ha; preemergence weeds, flooded paddy; herbicidal effect rating 0-9, three to four weeks after treatment
Mark Condition not met for CYPIR values under 6, and Condition met for everything at or above.

Check this molecule for CYPIR at or above 6: COc1ccc(CC(=O)OCc2nsc3ccc(-n4c(=O)cc(C(F)(F)F)n(C)c4=O)cc23)cc1 Condition met

Quick check: does Cc1ccsc1C=C(C#N)c1nsc2ccc(-n3c(=O)cc(C(F)(F)F)n(C)c3=O)cc12 have CYPIR greater than or equal to 6? Condition not met

Hi, just wondering whether CC(c1ccccc1)S(=O)(=O)NC(=O)c1nsc2ccc(-n3c(=O)cc(C(F)(F)F)n(C)c3=O)cc12 (stereo not shown) shows CYPIR of 6 or higher. Condition met

Record CCOCN(C(=O)c1nsc2ccc(-n3c(=O)cc(C(F)(F)F)n(C)c3=O)cc12)S(=O)(=O)Cc1ccccc1 ; criterion: CYPIR no lower than 6. Met? Condition met

Check this molecule for CYPIR at or above 6: CN(C)/N=C/c1nsc2ccc(-n3c(=O)cc(C(F)(F)F)n(C)c3=O)cc12 Condition met

Determine whether measured CYPIR meets or exceeds 6 for Cn1c(C(F)(F)F)cc(=O)n(-c2ccc3snc(C(=O)NS(=O)(=O)Cc4ccccc4[N+](=O)[O-])c3c2)c1=O Condition not met

Check this molecule for CYPIR at or above 6: CCCCS(=O)(=O)OC(C)c1nsc2ccc(-n3c(=O)cc(C(F)(F)F)n(C)c3=O)cc12 (stereo not shown) Condition not met

Item Cn1c(C(F)(F)F)cc(=O)n(-c2ccc3snc(C(=O)Nc4nc(C(F)(F)F)c(Cl)s4)c3c2)c1=O with CYPIR of 6 or above? Condition not met

Check this molecule for CYPIR at or above 6: CN(Cc1ccc(Cl)cc1)S(=O)(=O)NC(=O)c1nsc2ccc(-n3c(=O)cc(C(F)(F)F)n(C)c3=O)cc12 Condition not met

In plain terms: is recorded CYPIR at least 6 for CC(=O)OCCSC(SCCOC(C)=O)c1nsc2ccc(-n3c(=O)cc(C(F)(F)F)n(C)c3=O)cc12 ? Condition not met

Record CC(OS(=O)(=O)c1ccccc1)c1nsc2ccc(-n3c(=O)cc(C(F)(F)F)n(C)c3=O)cc12 (stereo not shown) ; criterion: CYPIR no lower than 6. Met? Condition not met

Could you verify whether the entry Cn1c(C(F)(F)F)cc(=O)n(-c2ccc3snc(C(Br)S(=O)(=O)c4ccccc4)c3c2)c1=O (stereo not shown) shows CYPIR of no less than 6? Condition not met

----------
System: Oryza sativa, (L.) Tebonnet
assayComment: Rice tolerance to post-transplant applications under flooded paddy conditions (Example 187), ORYSAT (Rice, Tebonnet); note: meaning of each grade not given here
reportedConditions: Rate 0.2500 kg/ha, rated three to four weeks after treatment
Property: herbicidal effect rating ORYSAT; scope: individual compounds
Give your answer as a number; write no unit.

COc1ccc(C)cc1-c1noc2cc(F)c(-n3c(=O)cc(C(F)(F)F)n(C)c3=O)cc12	6.0
CCCCCCCOC(=O)c1nsc2ccc(-n3c(=O)cc(C(F)(F)F)n(C)c3=O)cc12	6.0

Shift focus to the following entry.
Return value of herbicidal effect rating ORYSAT for input CN(C(=O)c1nsc2ccc(-n3c(=O)cc(C(F)(F)F)n(C)c3=O)cc12)S(C)(=O)=O , no commentary. 6.0
